Data provenance is PubChem BioAssay (NCATS).

tested on: CP238; assay: qHTS profiling for inhibitors of Plasmodium falciparum proliferation (AID 504749); note: nearly all actives have a fitted effect of over 60% in size; conditions: P. falciparum in erythrocytes, SYBR Green DNA, 72 h; series mostly up to 28.7 µM
Records with an inconclusive call do not appear. Activity calls are given as the source filed them. Calls come from the whole dose curve; as a rule, active = well fitted inhibition curve with a large enough effect; inconclusive = small, poorly fitted or top-dose-only effect; inactive = flat fitted curve, though single readings scatter.
Hi! Could you answer with just one of these? active, inactive

Use the examples below as a reference point.
CCOC(=O)OC(C)OC1=C(C(=O)Nc2ccccn2)N(C)S(=O)(=O)c2ccccc21 (stereo not given) :: inactive
COC(=O)[C@@H]1CC2=CC(=O)CC[C@]2(C)[C@@]23O[C@@H]2C[C@@]2(C)[C@@H](CC[C@@]24CCC(=O)O4)[C@H]13 :: inactive
CCN(CC)C(=O)/C(C#N)=C/c1cc(O)c(O)c([N+](=O)[O-])c1 :: inactive
CCn1cc(C(=O)O)c(=O)c2cnc(N3CCCC3)nc21 :: inactive
CCCCC(CC)CN=C(N)NC(N)=NCCCCCCN=C(N)NC(N)=NCC(CC)CCCC (stereo not given) :: active

# input Dear all, I need the recorded test outcome for C[C@@H]1C(=O)NC2=Nc3cccc(Cl)c3CN21 , thank you.
# output inactive

# input Dear all, I need the recorded test outcome for CC(=O)N/N=C/c1ccc([N+](=O)[O-])o1 , thank you.
# output inactive

# input Dear all, I need the recorded test outcome for CC(C)COC(=O)c1ccc(N)cc1 , thank you.
# output inactive

# input Dear all, I need the recorded test outcome for CCCCCCCCCCCCCCCCCC(=O)OCC(O)CO (stereo not given) , thank you.
# output inactive

# input Dear all, I need the recorded test outcome for COc1c(C)c2c(c(O)c1C/C=C(\C)CCC(=O)O)C(=O)OC2 , thank you.
# output active

---

experiment: qHTS of pediatric cancer cell lines to identify multiple opportunities for drug repurposing: Primary screen for SK-N-MC cells (AID 1347093); details: SK-N-MC viability, CellTiter-Glo luminescence, 48 h; series mostly up to 46 µM
Inconclusive results are not listed. Calls of active or inactive are those of the source. The call rests on the fitted dose curve; in most records, active means well fitted cell-killing curve with a large enough effect; inconclusive means small, poorly fitted or top-dose-only effect; inactive means no such curve, though single readings can be large or run the other way.
Hi! Could you answer with just one of these? active, inactive

NC[C@H]1O[C@H](O[C@H]2[C@H](O)[C@@H](O[C@H]3O[C@H](CO)[C@@H](O)[C@H](N)[C@H]3O)[C@H](N)C[C@@H]2N)[C@H](N)[C@@H](O)[C@@H]1O :: inactive

# input Dear all, I need the recorded test outcome for COCc1c(C(C)C)nc(C(C)C)c(/C=C/[C@@H](O)C[C@@H](O)CC(=O)O)c1-c1ccc(F)cc1 , thank you.
# output active

# input Dear all, I need the recorded test outcome for CC(=O)OCC(=O)[C@@]12N=C(C)O[C@@H]1C[C@H]1[C@@H]3CCC4=CC(=O)C=C[C@]4(C)[C@H]3[C@@H](O)C[C@@]12C , thank you.
# output inactive

# input Dear all, I need the recorded test outcome for CCCOC(C(=O)OC1CCN(C)CC1)(c1ccccc1)c1ccccc1 , thank you.
# output inactive

# input Dear all, I need the recorded test outcome for CC(C)COC(=O)c1ccc(N)cc1 , thank you.
# output inactive

# input Dear all, I need the recorded test outcome for CNC(=O)CN(CCN(CCN(CC(=O)[O-])CC(=O)NC)CC(=O)[O-])CC(=O)[O-].O.[Gd+3] , thank you.
# output inactive

# input Dear all, I need the recorded test outcome for N[C@H](Cc1c[nH]c2ccccc12)C(=O)O , thank you.
# output inactive

---

molecular target: Cytochrome P450 2D6 (Homo sapiens); experiment: Cytochrome P450 family 2 subfamily D member 6 (CYP2D6) small molecule antagonists: luciferase biochemical (cell-free) qHTS assay (AID 1645840); conditions: P450-Glo CYP2D6 enzyme, luciferin luminescence, 1 h; series mostly up to 57.4 µM; note: nearly all actives have a fitted effect of over 55% in size; note: potency is the fitted concentration of half-maximal effect
Records with an inconclusive call do not appear. Active and inactive are the calls of the source. Calls follow the shape of the dose curve; as a rule, active = well fitted inhibition curve with a large enough effect in the repeat runs; inconclusive = weak or mixed curves; inactive = flat fitted curve, though single readings scatter.
Outcome Measure: Potency

Below are worked cases with known answers.
NC(CO)(CO)CO :: inactive
C=C1C[C@H]2[C@@H]3C=C(C)C4=CC(=O)CC[C@]4(C)[C@H]3CC[C@]2(C)[C@@]1(OC(C)=O)C(C)=O :: inactive
O=C(OCCOCCO)c1ccccc1Nc1cccc(C(F)(F)F)c1 :: 27.5 µM (active)
CCCCS(=O)(=O)N[C@@H](Cc1ccc(OCCCCC2CCNCC2)cc1)C(=O)O :: inactive
Cc1c(C(C)C)c(=O)n(-c2ccccc2)n1C :: inactive

So for CC(O)C(=O)O (stereo unspecified) , the logged Potency turned out to be 12.3 µM (active)

So for C[C@]12CC[C@@H]3c4ccc(O)cc4CC[C@H]3[C@@H]1CC[C@@H]2O , the logged Potency turned out to be inactive

So for Cc1ccnc(NS(=O)(=O)c2ccc(N)cc2)n1 , the logged Potency turned out to be inactive

---

experiment: qHTS assay for environmental chemicals that activate the Aryl hydrocarbon Receptor (AhR) signaling pathway (AID 651777); details: 1A2-DRE human hepatoma cells, luciferase, 24 h; hits give high values; note: % of control where 0% means no effect; nearly all actives have a fitted effect of over 15% in size
Records with an inconclusive call do not appear.
activation values, listed per item
Field format: number, assumed %, no unit text.

Below are worked cases with known answers.
O=C(O)CCCCC(=O)O :: 0.177
C[C@]12CC[C@@H]3c4ccc(O)cc4CC[C@H]3[C@@H]1CC[C@@H]2O :: 1.98
CC(C)(Oc1ccc(Cl)cc1)C(=O)O :: -2.05

Now turn to the next molecule.
So for CC(O)C(=O)O (stereo not given) , the logged activation turned out to be -0.164

---

Test system: MKL-1
Assay: qHTS assay to identify novel small-molecules to repurpose for Merkel cell carcinoma treatment (AID 1296009); note: nearly all actives have a fitted effect of over 60% in size
Conditions: MCC and control cell lines, CellTiter-Glo viability, 72 h; series mostly up to 46 µM
Text: MCC is a rare and aggressive neuroendocrine skin cancer with limited treatment options. Approximately 80% of MCCs have the Merkel cell polyomavirus (MCPyV) DNA integrated into the host genome (virus-positive: VP-MCC) and viral oncogenes drive oncogenesis. The remaining MCCs are virus-negative (VN-MCC) and are caused by UV mutagenesis. […] Using cell viability as a readout (CellTiter-Glo assay) we found both overlapping and distinct drugs that can be repurposed for the treatment of VP-MCC and VN-MCC. […]
Results filed as inconclusive are left out. Calls of active or inactive are those of the source. Calls follow the shape of the dose curve; as a rule, active = well fitted inhibition curve with a large enough effect; inconclusive = small, poorly fitted or top-dose-only effect; inactive = flat fitted curve, though single readings scatter.
Hi! Could you answer with just one of these? active, inactive

Use the examples below as a reference point.
CC(C)n1nc(-c2cc3cc(O)ccc3[nH]2)c2c(N)ncnc21 :: active
C[C@@H]1C[C@H]2[C@@H]3C[C@H](F)C4=CC(=O)C(Cl)=C[C@]4(C)[C@@]3(F)[C@@H](O)C[C@]2(C)[C@@]1(O)C(=O)CO :: inactive
C=C(CC)C(=O)c1ccc(OCC(=O)O)c(Cl)c1Cl :: active

# input Dear all, I need the recorded test outcome for CCOc1ccc(NC(=O)CC(C)O)cc1 (stereo not drawn) , thank you.
# output inactive

# input Dear all, I need the recorded test outcome for CC1(C)O[C@@H]2[C@@H](CO[C@@]3(COS(N)(=O)=O)OC(C)(C)O[C@@H]23)O1 , thank you.
# output inactive

# input Dear all, I need the recorded test outcome for COCc1c(C(C)C)nc(C(C)C)c(/C=C/[C@@H](O)C[C@@H](O)CC(=O)O)c1-c1ccc(F)cc1 , thank you.
# output active

---

tested on: WaGa; assay: qHTS assay to identify novel small-molecules to repurpose for Merkel cell carcinoma treatment (AID 1296009); settings: MCC and control cell lines, CellTiter-Glo viability, 72 h; series mostly up to 46 µM; note: nearly all actives have a fitted effect of over 60% in size; note: potency is the fitted concentration of half-maximal effect
Results filed as inconclusive are left out. Activity calls are given as the source filed them. Calls follow the shape of the dose curve; as a rule, active = well fitted inhibition curve with a large enough effect; inconclusive = small, poorly fitted or top-dose-only effect; inactive = flat fitted curve, though single readings scatter.
Outcome Measure: Potency

CN1CCN(C(c2ccccc2)c2ccccc2)CC1 :: inactive
C[C@]12C=CC(=O)C=C1[C@@H](F)C[C@@H]1[C@@H]2[C@@H](O)C[C@@]2(C)[C@H]1CC[C@]2(O)C(=O)CO :: inactive
O=c1ccc2ccccc2o1 :: inactive
CC(=O)Oc1ccc(C(c2ccc(OC(C)=O)cc2)c2ccccn2)cc1 :: inactive
CC(C)(Oc1ccc(Cl)cc1)C(=O)O :: inactive

So for O=C1OC(c2ccc(O)cc2)(c2ccc(O)cc2)c2ccccc21 , the logged Potency turned out to be inactive

So for CC(C)(CO)[C@@H](O)C(=O)NCCCO , the logged Potency turned out to be inactive

So for CN1CCC[C@@H]1c1cccnc1 , the logged Potency turned out to be inactive

So for CC(=O)Oc1ccc(C(=C2CCCCC2)c2ccc(OC(C)=O)cc2)cc1 , the logged Potency turned out to be inactive

So for CC(C)(C(=O)c1cccnc1)c1cccnc1 , the logged Potency turned out to be inactive

So for NC(CO)(CO)CO , the logged Potency turned out to be inactive

So for CCCCCCCCCCCCCCNCCO , the logged Potency turned out to be inactive

So for CC(=O)CC(c1ccc([N+](=O)[O-])cc1)c1c(O)c2ccccc2oc1=O (centres undefined) , the logged Potency turned out to be inactive

So for O=c1c(-c2ccccc2)c1-c1ccccc1 , the logged Potency turned out to be 18.8 µM (active)

So for NC(=O)C(=O)N/N=C/c1ccc([N+](=O)[O-])o1 , the logged Potency turned out to be 15 µM (active)

So for CC(=O)[C@H]1CC[C@H]2[C@@H]3C[C@H](C)C4=CC(=O)CC[C@]4(C)[C@H]3[C@@H](O)C[C@]12C , the logged Potency turned out to be inactive

So for C[C@@H]1C[C@H]2[C@@H]3CCC4=CC(=O)C=C[C@]4(C)[C@@]3(F)[C@@H](O)C[C@]2(C)[C@H]1C(=O)CO , the logged Potency turned out to be inactive

So for CCCCC(=O)O[C@]1(C(=O)CO)CC[C@H]2[C@@H]3CCC4=CC(=O)CC[C@]4(C)[C@H]3[C@@H](O)C[C@@]21C , the logged Potency turned out to be inactive
